molecular target: DNA topoisomerase I (Leishmania donovani (strain BPK282A1), UniProt E9BRC0, F270L); assay: Binding affinity to recombinant drug-resistant Leishmania donovani LdDR50 topoisomerase 1b large subunit F270L mutant after 24 hrs by equilibrium dialysis method
Sequence (E9BRC0 whole entry F270L): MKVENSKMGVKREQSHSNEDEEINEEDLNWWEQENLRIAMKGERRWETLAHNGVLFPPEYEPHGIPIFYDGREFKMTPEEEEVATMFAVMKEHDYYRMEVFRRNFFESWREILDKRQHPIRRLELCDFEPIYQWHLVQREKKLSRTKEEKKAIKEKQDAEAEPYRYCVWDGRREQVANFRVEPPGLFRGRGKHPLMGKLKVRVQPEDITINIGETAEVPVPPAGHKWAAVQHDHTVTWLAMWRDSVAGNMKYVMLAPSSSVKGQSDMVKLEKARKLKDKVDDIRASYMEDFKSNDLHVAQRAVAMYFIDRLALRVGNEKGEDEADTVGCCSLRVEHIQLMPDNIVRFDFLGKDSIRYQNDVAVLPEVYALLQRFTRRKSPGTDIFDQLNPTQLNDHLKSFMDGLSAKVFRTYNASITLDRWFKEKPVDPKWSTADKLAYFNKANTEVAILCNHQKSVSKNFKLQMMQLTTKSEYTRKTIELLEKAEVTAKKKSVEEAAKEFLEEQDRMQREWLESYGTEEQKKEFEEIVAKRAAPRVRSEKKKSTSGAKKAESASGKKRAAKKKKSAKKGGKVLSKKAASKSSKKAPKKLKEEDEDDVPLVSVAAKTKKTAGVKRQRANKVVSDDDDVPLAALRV
Readout type: pKd
In textbook form, pKd equals minus log to base ten of the concentration in mol/L.

Ask | Report its pKd with DNA topoisomerase I (Leishmania donovani (strain BPK282A1), UniProt E9BRC0, F270L) as the test system: c1ccc2c(Cc3c[nH]c4ccccc34)c[nH]c2c1
Reply | 3.28

====

biological target: DNA topoisomerase I (Leishmania donovani (strain BPK282A1), UniProt E9BRC0, F270L/K430N); assay: Binding affinity to recombinant drug-resistant Leishmania donovani LdDR50 topoisomerase 1b large subunit F270L, K430N mutant after 24 hrs by equilibrium dialysis method
Sequence (E9BRC0 whole entry F270L/K430N): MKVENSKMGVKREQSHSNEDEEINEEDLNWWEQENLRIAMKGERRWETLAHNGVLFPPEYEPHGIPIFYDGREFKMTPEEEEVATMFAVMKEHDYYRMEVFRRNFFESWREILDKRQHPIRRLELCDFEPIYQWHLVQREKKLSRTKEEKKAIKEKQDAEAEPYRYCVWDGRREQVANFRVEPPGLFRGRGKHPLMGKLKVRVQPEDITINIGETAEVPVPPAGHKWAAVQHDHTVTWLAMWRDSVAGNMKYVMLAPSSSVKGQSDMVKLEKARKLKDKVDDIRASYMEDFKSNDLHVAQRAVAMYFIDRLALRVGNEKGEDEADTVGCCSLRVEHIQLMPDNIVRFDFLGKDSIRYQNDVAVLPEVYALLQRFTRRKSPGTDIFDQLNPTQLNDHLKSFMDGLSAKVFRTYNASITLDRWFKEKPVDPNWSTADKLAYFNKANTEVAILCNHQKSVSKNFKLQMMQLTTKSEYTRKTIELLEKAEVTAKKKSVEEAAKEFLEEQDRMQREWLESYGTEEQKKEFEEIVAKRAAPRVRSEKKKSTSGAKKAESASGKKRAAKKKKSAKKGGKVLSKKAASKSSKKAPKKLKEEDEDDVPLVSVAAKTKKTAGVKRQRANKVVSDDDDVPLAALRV
Readout type: Kd (µM)
Number only, in µM; omit the unit.

Ask | Using known records, supply Kd for c1ccc2c(Cc3c[nH]c4ccccc34)c[nH]c2c1 [ARUNDINE]
Reply | 760
